Molecular target: Urotensin-2 receptor (Homo sapiens, UniProt Q9UKP6)
Sequence (Q9UKP6 whole entry): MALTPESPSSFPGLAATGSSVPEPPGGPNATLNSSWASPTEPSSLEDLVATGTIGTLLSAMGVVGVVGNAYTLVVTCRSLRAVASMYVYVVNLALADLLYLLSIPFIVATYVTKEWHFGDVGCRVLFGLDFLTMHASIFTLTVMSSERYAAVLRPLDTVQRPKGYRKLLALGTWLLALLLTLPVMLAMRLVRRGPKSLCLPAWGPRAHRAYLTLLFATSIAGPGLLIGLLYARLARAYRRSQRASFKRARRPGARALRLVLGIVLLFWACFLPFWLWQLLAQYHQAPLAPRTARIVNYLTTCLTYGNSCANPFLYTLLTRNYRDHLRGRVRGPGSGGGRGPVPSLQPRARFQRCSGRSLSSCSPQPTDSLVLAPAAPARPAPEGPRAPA
Test: Displacement of [125I]urotensin 2 from human UT receptor expressed in CHO-K1 cells
Assay type: cell-based
assayMetric: Ki

Some solved cases for reference:
structureString: CC(C)[C@H](NC(=O)[C@@H]1CSSC(C)(C)[C@H](NC(=O)[C@@H](N)CC(=O)O)C(=O)N[C@@H](Cc2ccccc2)C(=O)N[C@H](Cc2c[nH]c3ccccc23)C(=O)N[C@@H](CCCCN)C(=O)N[C@@H](Cc2ccc(O)cc2)C(=O)N1)C(=O)O
tgt: Urotensin-2 receptor (Homo sapiens, UniProt Q9UKP6)
assayMetric: Ki
result: 1.26 nM (antagonist)

structureString: CC(C)[C@H](NC(=O)[C@@H]1CSSC[C@H](NC(=O)[C@@H](N)CC(=O)O)C(=O)N[C@@H](Cc2ccccc2)C(=O)N[C@@H](Cc2c[nH]c3ccccc23)C(=O)N[C@@H](CCCN)C(=O)N[C@@H](Cc2ccc(O)cc2)C(=O)N1)C(=O)O
tgt: Urotensin-2 receptor (Homo sapiens, UniProt Q9UKP6)
assayMetric: Ki
result: 10 nM (antagonist)

Next compound, Ki to be filled in.
For the compound "CC(C)[C@H](NC(=O)[C@@H]1CSSC(C)(C)[C@H](NC(=O)[C@@H](N)CC(=O)O)C(=O)N[C@@H](Cc2ccccc2)C(=O)N[C@H](Cc2c[nH]c3ccccc23)C(=O)N[C@H](CCCN)C(=O)N[C@@H](Cc2ccc(O)cc2)C(=O)N1)C(=O)O" , report Ki.
398 nM (antagonist)
